# EXPERIMENTAL_TARGET: Bifunctional dihydrofolate reductase-thymidylate synthase (Plasmodium falciparum K1, UniProt P13922, C59R/I164L/N51I/S108N)
# Sequence (P13922 whole entry, looked up, stated change not applied): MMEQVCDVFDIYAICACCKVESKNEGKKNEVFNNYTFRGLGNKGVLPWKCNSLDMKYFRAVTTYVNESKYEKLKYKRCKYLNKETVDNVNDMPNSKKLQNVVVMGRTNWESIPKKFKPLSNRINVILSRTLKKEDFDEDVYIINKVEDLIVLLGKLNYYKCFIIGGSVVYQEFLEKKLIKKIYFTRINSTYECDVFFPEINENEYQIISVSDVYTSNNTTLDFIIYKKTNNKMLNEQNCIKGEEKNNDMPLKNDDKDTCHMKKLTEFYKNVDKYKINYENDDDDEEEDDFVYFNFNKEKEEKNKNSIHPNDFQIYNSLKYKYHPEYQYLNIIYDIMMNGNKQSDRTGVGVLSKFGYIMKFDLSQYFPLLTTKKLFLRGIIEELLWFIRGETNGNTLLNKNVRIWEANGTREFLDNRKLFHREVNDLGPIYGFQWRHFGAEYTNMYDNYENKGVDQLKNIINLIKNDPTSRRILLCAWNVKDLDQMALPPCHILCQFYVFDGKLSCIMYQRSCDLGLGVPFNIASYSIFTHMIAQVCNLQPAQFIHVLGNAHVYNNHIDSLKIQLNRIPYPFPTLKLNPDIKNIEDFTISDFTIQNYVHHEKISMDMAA
# RUN_DESCRIPTION: Binding affinity towards mutant dihydrofolate reductase (N51I+C59R+S108N+I164L DHFR) of Plasmodium falciparum
Lab note: anything with Ki below 10 nM is marked fulfilled; values at 10 nM or higher are marked not fulfilled.

COMPOUND	GROUP
CCCC1(C)N=C(N)N=C(N)N1c1cccc(Cl)c1 (stereo unspecified)	not fulfilled
COC(=O)CCCc1nc(N)nc(N)c1-c1ccc(Cl)cc1	not fulfilled
Nc1nc(N)c(-c2ccc(Cl)cc2)c(CCCc2ccccc2)n1	not fulfilled
NC1=NC(c2ccc(Oc3ccccc3)cc2)N(c2cccc(Cl)c2)C(N)=N1 (stereo unspecified)	fulfilled
Cc1nc(N)nc(N)c1-c1cccc(Cl)c1	not fulfilled
Nc1nc(N)c(-c2cccc(Cl)c2)c(CCCc2ccccc2)n1	fulfilled
CCCCCCC1(C)N=C(N)N=C(N)N1c1cccc(Cl)c1 (stereo unspecified)	not fulfilled
CCc1nc(N)nc(N)c1-c1ccc2c(c1)OCO2	not fulfilled
NC1=NC(c2cccc(Oc3cc(Cl)cc(Cl)c3)c2)N(c2cccc(Cl)c2)C(N)=N1 (stereo unspecified)	fulfilled
Nc1nc(N)c(-c2cccc(Cl)c2)c(CCOCCCOc2ccccc2)n1	fulfilled
CC(C)C1(C)N=C(N)N=C(N)N1c1ccc(Cl)cc1 (stereo unspecified)	not fulfilled

###

# Tested on: KB
# RUN_DESCRIPTION: Relative antiplasmodial activity to cytotoxicity in Plasmodium falciparum Csl-2 infected KB cells
# Assay type: functional
READOUT_KIND: Safety ratio

COMPOUND	EXPERIMENTAL_RESULT
CC(=O)OCCCc1nc(N)nc(N)c1-c1cccc(Cl)c1	9.4
NC1=NC(c2ccc(Oc3ccccc3)cc2)N(c2cccc(Cl)c2)C(N)=N1 (centres undefined)	1.2
CCCCCCCC1N=C(N)N=C(N)N1c1cccc(Cl)c1 (centres undefined)	7.1
Nc1nc(N)c(-c2cccc(Cl)c2)c(CCCc2ccccc2)n1	0.4
Nc1nc(N)c(-c2cccc(Cl)c2)c(CCCOC(=O)c2ccccc2)n1	4.4
NC1=NC(c2cccc(Oc3cc(Cl)cc(Cl)c3)c2)N(c2cccc(Cl)c2)C(N)=N1 (centres undefined)	1.5
NC1=NC(c2cccc(Oc3ccc(Cl)cc3)c2)N(c2ccc(Cl)cc2)C(N)=N1 (centres undefined)	1
NC1=NC(c2cccc(OCCCOc3cc(Cl)c(Cl)cc3Cl)c2)N(c2cccc(Cl)c2)C(N)=N1 (centres undefined)	1.3
NC1=NC(c2cccc(Oc3ccccc3)c2)N(c2cccc(Cl)c2)C(N)=N1 (centres undefined)	1.2
CCCC1(C)N=C(N)N=C(N)N1c1cccc(Cl)c1 (centres undefined)	379
Nc1nc(N)c(-c2ccccc2)c(CCCc2ccccc2)n1	55.6
Nc1nc(N)c(-c2cccc(Cl)c2)c(CCCOC(=O)OCc2ccccc2)n1	0.8
NC1=NC(c2ccc(Oc3ccccc3)cc2)N(c2ccc(Cl)cc2)C(N)=N1 (centres undefined)	1.5
NC1=NC(c2ccccc2)N(c2cccc(Cl)c2)C(N)=N1 (centres undefined)	348
CCCOc1ccc(C2N=C(N)N=C(N)N2c2cccc(Cl)c2)cc1 (centres undefined)	2.1
Nc1nc(N)c(-c2cccc(Cl)c2)c(CCCO)n1	5.3
COc1ccc(CCCc2nc(N)nc(N)c2-c2cccc(Cl)c2)cc1	5.6
NC1=NC(c2cccc(Oc3ccc(Cl)cc3)c2)N(c2cccc(Cl)c2)C(N)=N1 (centres undefined)	2.3
CCCCCCC1(C)N=C(N)N=C(N)N1c1cccc(Cl)c1 (centres undefined)	8.2
CCCCCCc1nc(N)nc(N)c1-c1ccccc1	37.7
Nc1nc(N)c(-c2cccc(Cl)c2)c(CCOCCCOc2ccccc2)n1	2.2
NC1=NC(c2cccc(OCc3ccccc3)c2)N(c2cccc(Cl)c2)C(N)=N1 (centres undefined)	1.1
CC1(C)N=C(N)N=C(N)N1c1ccc(Cl)cc1 [CYCLOGUANIL]	1.1
NC1=NC(c2cccc(Oc3cccc(C(F)(F)F)c3)c2)N(c2cccc(Cl)c2)C(N)=N1 (centres undefined)	1.8

###

# EXPERIMENTAL_TARGET: Bifunctional dihydrofolate reductase-thymidylate synthase (Plasmodium falciparum K1) (UniProt P13922)
# Sequence (P13922 whole entry, looked up): as the sequence (P13922 whole entry, looked up, stated change not applied) above
# RUN_DESCRIPTION: Ratio of binding affinity for mutant (N51I+C59R+S108N) to that of wild type dihydrofolate reductase
Label Fulfilled when Ratio is strictly below 8; at or above that, label Not fulfilled.

MOLECULE	GROUP
COc1ccc(CCCc2nc(N)nc(N)c2-c2cccc(Cl)c2)cc1	Fulfilled
Nc1nc(N)c(-c2ccccc2)c(CCCc2ccccc2)n1	Fulfilled
NC1=NC(c2cccc(OCc3ccccc3)c2)N(c2cccc(Cl)c2)C(N)=N1 (centres undefined)	Fulfilled
Nc1nc(N)c(-c2ccc(Cl)cc2)c(CCCc2ccccc2)n1	Not fulfilled
CC1N=C(N)N=C(N)N1c1ccc(Cl)cc1 (centres undefined)	Not fulfilled
CCCCCCC1(C)N=C(N)N=C(N)N1c1ccc(Cl)cc1 (centres undefined)	Not fulfilled
NC1=NC(c2cccc(Oc3ccc(Cl)cc3)c2)N(c2ccc(Cl)cc2)C(N)=N1 (centres undefined)	Not fulfilled
NC1=NC(c2ccc(Oc3ccccc3)cc2)N(c2ccc(Cl)cc2)C(N)=N1 (centres undefined)	Not fulfilled
Nc1nc(N)c(-c2cccc(Cl)c2)c(CCCO)n1	Fulfilled
Nc1nc(N)c(-c2cccc(Cl)c2)c(CCCOC(=O)OCc2ccccc2)n1	Fulfilled
CCCCCCCC1N=C(N)N=C(N)N1c1cccc(Cl)c1 (centres undefined)	Fulfilled
CC(C)C1(C)N=C(N)N=C(N)N1c1ccc(Cl)cc1 (centres undefined)	Not fulfilled
NC1=NC(c2cccc(Oc3ccccc3)c2)N(c2ccc(Cl)cc2)C(N)=N1 (centres undefined)	Not fulfilled
CC(=O)OCCCc1nc(N)nc(N)c1-c1cccc(Cl)c1	Fulfilled
NC1=NC(c2ccccc2)N(c2cccc(Cl)c2)C(N)=N1 (centres undefined)	Not fulfilled
Nc1nc(N)c(-c2cccc(Cl)c2)c(CCCOC(=O)c2ccccc2)n1	Fulfilled
NC1=NC(c2cccc(OCc3ccccc3)c2)N(c2ccc(Cl)cc2)C(N)=N1 (centres undefined)	Not fulfilled
CC(=O)OCCCc1nc(N)nc(N)c1-c1ccccc1	Fulfilled
CCc1nc(N)nc(N)c1-c1ccc(C)cc1	Not fulfilled
CCc1nc(N)nc(N)c1-c1ccc2c(c1)OCO2	Fulfilled
CCc1nc(N)nc(N)c1-c1ccc(Cl)c(Cl)c1 [ETOPRINE]	Fulfilled
CCCCCCC1(C)N=C(N)N=C(N)N1c1cccc(Cl)c1 (centres undefined)	Fulfilled
NC1=NC(c2cccc(Oc3ccccc3)c2)N(c2cccc(Cl)c2)C(N)=N1 (centres undefined)	Fulfilled
COC(=O)CCCc1nc(N)nc(N)c1-c1cccc(Cl)c1	Fulfilled
NC1=NC(c2cccc(OCCCOc3cc(Cl)c(Cl)cc3Cl)c2)N(c2cccc(Cl)c2)C(N)=N1 (centres undefined)	Fulfilled
CC(C)C1(C)N=C(N)N=C(N)N1c1cccc(Cl)c1 (centres undefined)	Fulfilled
NC1=NC(c2ccc(Oc3ccccc3)cc2)N(c2cccc(Cl)c2)C(N)=N1 (centres undefined)	Fulfilled
Nc1nc(N)c(-c2ccccc2)c(CCCOC(=O)c2ccccc2)n1	Fulfilled
NC1=NC(c2cccc(Oc3cccc(C(F)(F)F)c3)c2)N(c2cccc(Cl)c2)C(N)=N1 (centres undefined)	Fulfilled
Nc1nc(N)c(-c2cccc(Cl)c2)c(CCCc2ccccc2)n1	Fulfilled
Cc1nc(N)nc(N)c1-c1cccc(Cl)c1	Fulfilled
CCCC1(C)N=C(N)N=C(N)N1c1ccc(Cl)cc1 (centres undefined)	Not fulfilled
COC(=O)CCCc1nc(N)nc(N)c1-c1ccc(Cl)cc1	Not fulfilled
NC1=NC(c2cccc(Oc3ccc(Cl)cc3)c2)N(c2cccc(Cl)c2)C(N)=N1 (centres undefined)	Fulfilled

###

This section presents compounds with their documented Ratio values.
# System: Bifunctional dihydrofolate reductase-thymidylate synthase (Plasmodium falciparum K1), P13922 [UNDEFINED MUTATION]
# RUN_DESCRIPTION: Ratio of binding affinity for mutant (C59R+S108N+I164L) to that of wild type dihydrofolate reductase

COMPOUND	Ratio
NC1=NC(c2cccc(Oc3ccc(Cl)cc3)c2)N(c2cccc(Cl)c2)C(N)=N1 (stereo unspecified)	3.9
Nc1nc(N)c(-c2cccc(Cl)c2)c(CCCOC(=O)OCc2ccccc2)n1	0.7
CC1(C)N=C(N)N=C(N)N1c1ccc(Cl)cc1	190
Nc1nc(N)c(-c2cccc(Cl)c2)c(CCCO)n1	3.2
NC1=NC(c2ccc(Oc3ccccc3)cc2)N(c2ccc(Cl)cc2)C(N)=N1 (stereo unspecified)	363
CCCC1(C)N=C(N)N=C(N)N1c1ccc(Cl)cc1 (stereo unspecified)	1040
CCCCCCC1(C)N=C(N)N=C(N)N1c1cccc(Cl)c1 (stereo unspecified)	5
Nc1nc(N)c(-c2cccc(Cl)c2)c(CCCc2ccccc2)n1	1.8
Nc1nc(N)c(-c2cccc(Cl)c2)c(CCCOC(=O)c2ccccc2)n1	0.5
NC1=NC(c2cccc(Oc3ccc(Cl)cc3)c2)N(c2ccc(Cl)cc2)C(N)=N1 (stereo unspecified)	108
Cc1nc(N)nc(N)c1-c1cccc(Cl)c1	5.2
